- experiment_summary: yeast display, Sf9 membrane polyspecificity reagent, FACS + sequencing; frameworks hold sequencing errors
property_measured: polyreactivity (PSR sort gate)

Consider the reported polyreactivity (PSR sort gate) for these sequences:
* QVQLVESGGGLVQAGGSLRLSCAASGSTFKWYAMGWYRQAPGKERELVATISSGGSTNYADSVKGRFTISRDNAKNTVYLQMNSLKPEDTAVYYCAAANFKWGQGTQVTVTS | low polyreactivity
* QVQLVESGGGLVQAGGSLRLTCAASGFTIYLYTMGWYRQAPGKERELVATISWSGGSTYYADSVKGRFTISRDNAKNTVYLHMNSLKPEDTAVYYCAKAYNGRYTWRYDYWGQGTQVTVSS | high polyreactivity
* QVQRVESGGGLVQAGGSLRLSCAASGLTFRRYGMGWYRQAPGKEREWVASISSRGGNTYYADSVKGRLTISRDKAKNTVYLQMNSRKPEETAVYYCAARHVLYGYYLYDYWGQGTQVTVSS | high polyreactivity
* QVQLVESGGGLVQAGGSLRLSCAASGRTFSRYAMGWYRQAPGKERELVAAIRGNSGNTYYADSVKGRFTISRDNAKNTVYLQMNSLKPEDTAVYYCAKPFNIWGQGTQVTVSS | high polyreactivity

Now consider a different sequence.
Quick note, polyreactivity (PSR sort gate) for QVQLVESGGGLVQAGGSLRLSCAASGITFSYNVMGWYRQAPGKEREFVAAISDGGSTYYADSVKGRFTISRDNAKNTVYLQMNSLKPEDTAVYFCAKGYRYTYSQQVIYDYYYWGQGTQVTVSS landed at low polyreactivity

###

- experiment_summary: yeast display, Sf9 membrane polyspecificity reagent, FACS + sequencing; frameworks hold sequencing errors
property_measured: polyreactivity (PSR sort gate)

- QVQLVESGGGLVQAGGSLRLSCAASGRTFKAYAMGWYRQAPGKERELVAAISYSTTSTYYADSVKGRFTISRDNAKNTVYLQMNSLKPEDTAVYYCAVDYIIWYDGYLLYYWGQGTQVTVSS: low polyreactivity
- QVQLVESVGGLVQAGGSLRLSCAASGSIFSPYAMGWYRQAPGKERELVAGISRDGSTYYADSVKGRFTISRDNAKNTVYLQMNSMKPEDTAVYYCAATEFRYFEGGAYFEGYYWGQGTQVTVSS: low polyreactivity
- QVQLVESGGGLVQAGGSLRLSCAASGSTFEYNAMGGYRQAPGKERELVASSTNYADSVKGRFTISRDNAKNTVYLQMNSLKPEDTAVYYCAREQGVNRNHDYWGQGTQVTVSS: low polyreactivity
- QVQLVESGGGLVQAGGSLRLSCAASGFTFGSNVMGWYRQAPGKERELVAAIRGRGGSTYYADSVKGRFTISRDNAKNTVYLQMNSLKPEDTAVYYCNAVYSYYYRWYYDFDYWGQGTQVTVSS: high polyreactivity

Quick note, polyreactivity (PSR sort gate) for QVQLVESGGGLVQAGGSLPLRCAASGITFYGYTMGWYRQAPGKERELVAAITSVGSTYYADSVKGRFTISRDNAKNTVYLQMNSLKPEDTAVYYCNARPKFRTYNYWGQGTQVTVSS landed at high polyreactivity

Quick note, polyreactivity (PSR sort gate) for QVQLVESGGGLVQAGGSLRLSCAASGSTLDRNTMGWYRQAPGKERELVAAITSSGGRTYYADSVKGRFTISRDNEKNTVYFQMNSLKPDDTAVYYCNNDYWKRPVDEYDYWGQGTQVTVSS landed at high polyreactivity

Quick note, polyreactivity (PSR sort gate) for QVQLVESGGGLVQAGGSLRLSCAASGSTFRYKTMGWYRQAPGKERELVAAISSRGTNTYYADSVKGRFTISRDNAKNTVYLQMNSLKPDDPAVYYCDTGYYVRMDWGQGTQVTVSS landed at high polyreactivity

Quick note, polyreactivity (PSR sort gate) for QVQLVESGGGLVQAGGSLRLSCAASGFIFPDDAMGWYSQAPGKERELVASINRSGGSTNYADSVKGRFTISRDHAKNTDYLQMNSLKPEDTAVYYCAPDFSFLGNASARLDYDYWGQGTQVTGSS landed at low polyreactivity

Quick note, polyreactivity (PSR sort gate) for QVQLVESGGGLVQAGGSLRLSCAASGRIFPAYVMGWYRQAPGKERELVATIDNGGCTYYADSVKGRFTISRDNAKNTVYLQMNSLKPEDTAVYYCARDRHVRWGLKMDYWGQGTQVTVSS landed at low polyreactivity

Quick note, polyreactivity (PSR sort gate) for QVQLVESGGGLVQAGGSLRLSCAASGRTFVLNVMGWYRQAPGKERELVADITSGDNTYYADSVKGRFTISRDNAKNTVYLQRNSLKPEDTAVYYCAADGWFYFGYDYWGQGTQVTVSS landed at low polyreactivity

Quick note, polyreactivity (PSR sort gate) for QVQLEESGGGLVQAGGSLRLSCAASGSTFAGNAMGWYRQAPGKERELVAAISGSGGITYYADSVKGRFTISRDNAKNTVYLQMNSLKAEDTAVYYCNAYYWFSRYGYWGQGTQVNVSS landed at high polyreactivity
